Provenance of the data: patent US20260022165A1

Tgt: T1, hFc-hC3d fusion protein (human, UniProt P01024 1002-1303, limits assumed)
T1 construct: domain: C3d; also called immobilized hC3d; not shown: human IgG Fc (hFc), captured by an anti-human IgG CH2 / Fcγ mAb
Assay name: SPR (Biacore X100), Fab over captured hFc-hC3d

Binder | Reading unit | koff
Ab4 Fab (His-tagged rabbit/human chimeric anti-C3d Fab) (Fab, V domains shown, Fab with rabbit Vκ/human Cκ/rabbit VH, His-tagged; also called Ab4 (κ)) VH: QSLEESGGRLVTPGTPLTLTCTVSGFSLSRYTMAWVRQAPGKGLEYIGWIDSSGSTYYASWAKGRFTISKTSSTTVDLKMTSLTTEDTATYFCASGNDGGDPLYYGMDPWGPGTLVTVSS VL: DGVMTQTPSSTSAAVGGTVTIKCQASQSIRSWLSWYQQKPGQPPKLLIYEASKLASGVPSRFKGSRSGTEYTLAISGVQREDAATYYCLGSIASDDTAFGAGTNVEIK | s⁻¹ | 0.00028
